Measured z-score values are reported for all entries that follow.
- Study target: NADPH oxidase 2 (Homo sapiens)
- Test details: compounds shifting NOX2 Amplex Red fluorescence – cell-based, HEK293-NOX2, PMA-stimulated, NOX inhibitor project, primary screen (AID 1159); further: test concentration not given here
- Protocol conditions: 45 min, higher = more signal, called active from +8 up or from −8 down
Property name: z-score

Molecule	Property name	Assay result
C=C(/C(=C/C[C@@H](OC(=O)c1ccncc1)c1cccc(OCCO)c1)c1cc(C(=O)OC)ccc1OC)C(C)C	z-score	2.05
CCC[C@@H]1C[C@@]1(CCC)[C@@H](NC(=O)c1cccs1)c1ccc(Cl)cc1	z-score	-1.47
CC(=O)NCCCC[C@@H]1NC(=O)[C@@H]2C[C@H](C(=O)NCCCC[N+](C)(C)C)[C@H](c3cccc(OCCO)c3)N2C1=O	z-score	0.151
COC(=O)[C@@]1(Cc2ccc(F)cc2)[C@@H]2[C@@H](CC(=O)[C@H]2CC(=O)C(=O)N2CCCC2)CN1C(=O)c1ccccc1	z-score	0.67
COC(=O)[C@@]1(Cc2ccc(F)cc2)[C@H]2c3cc(C(=O)N4CCCC4)n(Cc4ccccc4)c3C[C@H]2CN1C(=O)c1ccccc1	z-score	-0.165
C=CCOC(=O)[C@@H]1[C@H]2C(=O)O[C@H](c3ccccc3)[C@H](c3ccccc3)N2[C@H](c2ccc(OCCOC(=O)[C@@H]3C[C@@H]4C(=O)N[C@@H](CCCCNC(C)=O)C(=O)N4[C@@H]3c3ccc(O)cc3)cc2)[C@@]12C(=O)Nc1ccc(I)cc12	z-score	1.42
CC(C)(C)OC(=O)CC[C@]1(C(=O)N2CCCCC2)N=C(c2ccc(OCCCO)cc2)O[C@H]1c1ccccc1CN=[N+]=[N-]	z-score	-0.683
C=CCC(OC(C)=O)[C@@H]1[C@@H](N(Cc2cccc3ccccc23)C(=O)c2ccc(C)cc2)c2cc(OCCCO)ccc2N1C(=O)c1ccc2ccccc2c1 (some centres undefined)	z-score	-1.14
CN(C)C(=O)[C@@]1(Cc2ccccc2N=[N+]=[N-])N=C(c2ccc(OCCCO)cc2)O[C@H]1c1ccccc1N=[N+]=[N-]	z-score	-1.34
C=CCC(OC(C)=O)[C@@H]1[C@@H](N(Cc2ccc(-c3ccccc3)cc2)C(=O)c2cccc3ccccc23)c2cc(OCCCO)ccc2N1C(=O)c1ccc2ccccc2n1 (some centres undefined)	z-score	0.772
O=C1O[C@H](c2ccccc2)[C@H](c2ccccc2)N2[C@H]1[C@@H](C(=O)N1CCN(c3ncccn3)CC1)[C@]1(C(=O)Nc3ccc(C#CCCO)cc31)[C@H]2c1ccccc1OCCO	z-score	1.45
O=C1c2ccccc2[C@](Cc2ccccc2I)(C(=O)NC2CC2)[C@H](c2ccc(CO)cc2)N1Cc1ccccc1Cl	z-score	0.717
O=C1NC(=O)C2C1C=CC(C(O)c1ccc3c(c1)OCO3)N2Nc1ccc(Cl)cc1Cl (centres undefined)	z-score	-0.0436
CN(C)C(=O)[C@]1(Cc2ccccc2N=[N+]=[N-])N=C(c2ccc(OCCCO)cc2)O[C@@H]1c1ccccc1CN=[N+]=[N-]	z-score	-2.57

* * *

- Study target: Alpha-bungarotoxin (Bungarus multicinctus)
- Test details: compounds binding labelled alpha-BTX control protein – biochemical, small-molecule microarray, Alexa647 label, 635/667 nm fluorescence, artefact control for SMM control protein annotation, profiling panel (AID 1117)
- Protocol conditions: alpha-BTX-A647 binding fluorescence, higher = more signal
Measured composite z-score values are reported for all entries that follow.

Compound	Study target	composite z-score
O=C1CSC(c2cccc([N+](=O)[O-])c2)N1c1ccccc1 (centres undefined)	Alpha-bungarotoxin (Bungarus multicinctus)	0.163
COCCOC(=O)N1C(=O)[C@@]2(c3cc(C#Cc4ccc(OC)cc4)ccc31)[C@H](C(=O)N1CCc3cc(OC)c(OC)cc3C1)[C@H]1C(=O)O[C@H](c3ccccc3)[C@H](c3ccccc3)N1[C@@H]2c1ccc(OCCO)cc1	Alpha-bungarotoxin (Bungarus multicinctus)	1.41
COCCOC(=O)N1C(=O)[C@@]2(c3cc(C#Cc4ccc(OC)cc4)ccc31)[C@H](C(N)=O)[C@H]1C(=O)O[C@H](c3ccccc3)[C@H](c3ccccc3)N1[C@@H]2c1ccc(OCCO)cc1	Alpha-bungarotoxin (Bungarus multicinctus)	1.5
CCOC(=O)C1=CC[C@@H](c2ccc(N(CC)CC)cc2)N(S(=O)(=O)c2ccc(C)cc2)[C@H]1c1ccc([N+](=O)[O-])cc1	Alpha-bungarotoxin (Bungarus multicinctus)	0.274
CC(C)CCC[C@@H](C)[C@H]1CC[C@@]2(C)C3=C(CC[C@]12C)[C@@]1(C)CC[C@H](OC(=O)C(C)(C)C)C(C)(C)C1CC3 (some centres undefined)	Alpha-bungarotoxin (Bungarus multicinctus)	0.448
C=C(/C(=C/C[C@@H](OC(=O)c1ccncc1)c1cccc(OCCO)c1)c1cc(C(=O)OC)ccc1OC)C(C)C	Alpha-bungarotoxin (Bungarus multicinctus)	0.462
C=C(CCCC)/C(=C/C[C@H](OC(=O)c1ccncc1)c1ccc(CO)o1)c1cc(C(=O)OC)ccc1OC	Alpha-bungarotoxin (Bungarus multicinctus)	1.28
CC(C)CNC(=O)[C@@]1(C)c2ccccc2C(=O)N(Cc2ccccc2)[C@H]1c1ccc(CO)cc1	Alpha-bungarotoxin (Bungarus multicinctus)	-0.905
[N-]=[N+]=NCc1ccccc1C[C@]1(C(=O)NCCN2CCOCC2)N=C(c2ccc(OCCCO)cc2)O[C@H]1c1ccccc1	Alpha-bungarotoxin (Bungarus multicinctus)	1.16
CC(C)C[C@@H]1NC(=O)[C@@H]2C[C@H](C(=O)NCCCC[N+](C)(C)C)[C@H](c3cccc(OCCO)c3)N2C1=O	Alpha-bungarotoxin (Bungarus multicinctus)	0.324
C=CCNC(=O)[C@H]1[C@@H]2C(=O)O[C@@H](c3ccccc3)[C@@H](c3ccccc3)N2[C@@H](c2ccc(OCCO)cc2)[C@]12C(=O)N(C(=O)OCCOC)c1ccc(C#CC3=CCCCC3)cc12	Alpha-bungarotoxin (Bungarus multicinctus)	2.5
[N-]=[N+]=NCc1ccccc1C[C@]1(C(=O)NCCN2CCOCC2)COC(c2ccc(OCCCO)cc2)=N1	Alpha-bungarotoxin (Bungarus multicinctus)	-0.0034
COCCOC(=O)N1C(=O)[C@@]2(c3cc(C#CCNC(N)=O)ccc31)[C@H](c1ccc(OCCO)cc1)N1[C@H](c3ccccc3)[C@H](c3ccccc3)OC(=O)[C@H]1[C@@H]2C(=O)N1CCN(c2ncccn2)CC1	Alpha-bungarotoxin (Bungarus multicinctus)	0.505
COc1ccc([Si](C)(C)[C@@H]2[C@@H](CCO)O[C@]3(C(=O)N(Cc4ccccc4)c4ccc(N5CCCCC5=O)cc43)[C@H]2C)cc1	Alpha-bungarotoxin (Bungarus multicinctus)	1.08

Origin of values: PubChem BioAssay
